Just for reference, ChEMBL document CHEMBL3639097 is where these values come from.

Values of IC50 reported for Translocator protein (Rattus norvegicus) appear below.
Numbers only here, please. The scale is nM.

Measured IC50, CCN(Cc1ccncc1)C(=O)Cc1c(-c2ccc(Cl)c(Cl)c2)nc2cc(C)ccn12 : 26

Reported IC50 of CCN(Cc1ccccn1)C(=O)Cc1c(-c2ccc(Cl)c(Cl)c2)nc2cc(C)ccn12 : 21.9

molecule CCN(Cc1ccccc1)C(=O)Cc1c(-c2ccc(Cl)cc2)nc2cc(C)ccn12 , IC50 observed: 16.9

Notebook: COCCN(Cc1ccccn1)C(=O)Cc1c(-c2ccc(Cl)c(Cl)c2)nc2cc(C)ccn12 , IC50 read as 15.6
